Target: T1, human CCL17 (human, UniProt Q92583 24-94)
T1 sequence: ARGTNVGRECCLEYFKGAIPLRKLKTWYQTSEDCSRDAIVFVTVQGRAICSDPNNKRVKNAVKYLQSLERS
Assay: cell-based or functional assay
value.kind: IC50 (nM), calcium flux assay in CCRF-CEM cells, 10 ng/ml human CCL17

{"columns": ["binder", "reported"],
 "data": [
  ["C17B242 (antibody, V domains shown, Full IgG1, kappa) VH: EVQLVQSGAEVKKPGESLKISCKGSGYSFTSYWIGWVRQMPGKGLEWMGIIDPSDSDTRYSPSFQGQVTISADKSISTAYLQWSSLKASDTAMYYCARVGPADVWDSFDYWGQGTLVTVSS VL: DIVMTQSPDSLAVSLGERATINCKSSQSVLFSHDNLNTLAWYQQKPGQPPKLLIYHASTRESGVPDRFSGSGSGTDFTLTISSLQAEDVAVYYCQQYYAVPQTFGQGTKVEIK", 0.483]
]}

Value source: patent US20220348647A1
